readout: melting point

Consider the worked cases shown below.
{"columns": ["smiles.str", "melting point"],
 "data": [
  ["Cc1cc(Cl)c(Nc2c(-c3ccc(F)cc3Cl)c(C)nn2C)c(Cl)c1", "188 to 189 °C"],
  ["Cc1cc(F)c(Nc2c(-c3ccc(F)cc3Br)c(C)nn2C)c(F)c1", "114 to 116 °C"]
]}

I have 5 compounds here; please give me melting point for each one.
1. Cc1cc(Cl)c(Nc2c(-c3ccc(F)cc3Br)c(C)nn2C)c(Cl)c1
2. Cc1cc(F)c(Nc2c(-c3ccc(F)cc3F)c(C)nn2C)c(Br)c1
3. Cc1cc(F)c(Nc2c(-c3ccc(F)cc3Cl)c(C)nn2C)c(F)c1
4. Cc1cc(F)c(Nc2c(-c3ccc(F)cc3Br)c(C)nn2C)c(Br)c1
5. Cc1cc(F)c(Nc2c(-c3ccc(F)cc3F)c(C)nn2C)c(F)c1

1. 191 to 192 °C
2. 143 to 144 °C
3. 121 to 123 °C
4. 143 to 145 °C
5. 156 to 158 °C
